Source listed as PubChem BioAssay AID1628.

assay: decrease of insulin promoter-GFP reporter – imaging, high-content screening, mouse beta cells (AID 1628); details: MIN6 insulin promoter GFP reporter, at 5 µM, hits give low values
The campaign covered roughly 190,000 compounds. About 930 (0.49%) were called active. The list shows a part of the results. Results with a measured potency or affinity are listed apart.
Reported z-score is given for each of the following compounds.
Metric: z-score

[[record]]
compound = "Cc1cc(C)c(S(=O)(=O)c2ccccc2C)c(SCC(C)C)n1"
metric = "z-score"
recorded_value = -3.18

[[record]]
compound = "COc1cccc(OC)c1OCCN(C)C"
metric = "z-score"
recorded_value = 3.98

[[record]]
compound = "CCOC(=O)N1CCN(C(=O)NC2CCCCC2)CC1"
metric = "z-score"
recorded_value = 3.74

[[record]]
compound = "O=C(CN(C1CCCCC1)S(=O)(=O)c1ccccc1)NCc1ccco1"
metric = "z-score"
recorded_value = 0.65

[[record]]
compound = "COCCNC(=S)N/N=C(\\C)c1ccc2cc(OC)ccc2c1"
metric = "z-score"
recorded_value = 3.43

[[record]]
compound = "Cn1cc(C(N)=O)c2ccccc21"
metric = "z-score"
recorded_value = 0.12

[[record]]
compound = "CCOc1ccc(-c2c(C#N)c(N)nc3sc(C(=O)c4ccccc4)c(N)c23)cc1"
metric = "z-score"
recorded_value = 9.11

[[record]]
compound = "O=C1S/C(=C/c2ccc(N3CCOCC3)o2)C(=O)N1Cc1c(F)cccc1Cl"
metric = "z-score"
recorded_value = 3.83

[[record]]
compound = "Cc1cc(C(=O)COc2ccc(-c3nnco3)cc2)c(C)n1Cc1ccccc1"
metric = "z-score"
recorded_value = -4.66

[[record]]
compound = "O=[N+]([O-])c1ccc(/C=C/C2=NN(c3ccccc3)C(c3ccco3)C2)o1 (configuration not stated)"
metric = "z-score"
recorded_value = 12.4

[[record]]
compound = "CSC(=Nc1cccc(C)c1)NC#N"
metric = "z-score"
recorded_value = -5.35

[[record]]
compound = "COc1ccc2nc(N/C(N)=N/C(=S)Nc3ccccc3)nc(C)c2c1"
metric = "z-score"
recorded_value = 2.22

